# credit: ChEMBL document CHEMBL5352477

# method description: Inhibition of full length rabbit myosin 2 skeletal muscle isoform derived from Psoas muscle ATPase activity assessed as reduction in steady-state rabbit F-actin-activated Mg2+ ATPase activity incubated for 6 to 24 mins in presence of ATPase buffer at 7.0 containing Mgcl2 and ATP by fluorescence-based assay
# Format: tissue-based, Oryctolagus cuniculus
experimental readout: IC50

• COc1cc(/C=C/C(=O)c2c(O)c3ccccc3oc2=O)ccc1O = ≥ 100 µM
• CCCCN(CCC/N=C(\C)c1c(O)c2ccccc2oc1=O)Cc1cccc(OC)c1 = ≥ 100 µM
• COc1ccc(C/N=C(\C)c2c(O)c3ccccc3oc2=O)cc1 = 1.6 µM
• COc1cccc(C/N=C(\C)c2c(O)c3ccccc3oc2=O)c1 = 9.1 µM
• CCOCCC/N=C(\C)c1c(O)c2ccccc2oc1=O = 2.5 µM

IN: # return recorded IC50 for input O=c1oc2ccccc2c(O)c1/C=N/Cc1ccccc1
OUT: ≥ 100 µM

IN: Give reported IC50 value for COc1ccc(COCCC/N=C(\C)c2c(O)c3ccccc3oc2=O)cc1
OUT: 50 µM

###

# method description: Kinetic solubility of the compound in 2.5% DMSO/PBS at pH 7.4 incubated for 1 hrs by nephelometry
# Format: physicochemical
# conditions used: 2.5% DMSO/PBS, pH 7.4, read-out: Kinetic_solubility
experimental readout: solubility kinetic at 1 h (µM)
Just the number please, in µM, no unit attached.

IN: # return recorded solubility kinetic at 1 h for input CCCC/N=C(\C)C1C(=O)Oc2ccccc2C1=O (configuration not stated)
OUT: 607

###

# System: COS-7
# method description: Inhibition of Non-muscle myosin IIB in African green monkey COS-7 cells assessed as inhibition of cytokinesis by measuring increase in nuclei to cell ratio (N/C) at 40 uM incubated for 24 hrs by fluorescein-diacetate, Hoechst 33342 and propidium iodide staining based fluorescence microscopy relative to control
# conditions used: Chlorocebus aethiops
Activity calls are given as the source filed them. The calls are words filed in the database; no cut-off is given here.
experimental readout: inhibition

These solved cases illustrate the format of a correct answer.
• CCCCC/N=C(\C)c1c(O)c2ccccc2[nH]c1=O = inactive
• C/C(=N\OCc1ccccc1)c1c(O)c2ccccc2oc1=O = inactive
• C/C(=N\Cc1ccc(C)cc1)c1c(O)c2ccccc2oc1=O = inactive
• CCC/C(=N\Cc1ccccc1)c1c(O)c2ccccc2oc1=O = inactive
• C/C(=N\Cc1cccc(C)c1)c1c(O)c2ccccc2oc1=O = inactive

IN: Quote inhibition reported for Cc1ccc2c(c1)C(=O)[C@]1(O)CCN(c3ccccc3)C1=N2 please.
OUT: inactive

###

pIC50 reference
# method description: Inhibition of full length bovine Myosin-2 cardiac muscle isoform from left ventricle ATPase activity assessed as reduction in steady-state rabbit F-actin-activated Mg2+ ATPase activity incubated for 6 to 24 mins in presence of ATPase buffer at 7.0 containing Mgcl2 and ATP by fluorescence-based assay
# Parameters: species or system Bos taurus, Heart left ventricle
Note: pIC50 values are expressed as the negative base-10 logarithm of concentration in M.

Examples from the recorded data:
• CCOCCC/N=C(\C)c1c(O)c2ccccc2oc1=O = 5.09
• COc1cccc(C/N=C(\C)c2c(O)c3ccccc3oc2=O)c1 = 5.36
• CCOCC/N=C(\C)c1c(O)c2ccccc2oc1=O = 4.62

IN: Consider the molecule COCC/N=C(\C)c1c(O)c2ccccc2oc1=O . State its measured pIC50.
OUT: 4.28

IN: Hello, please tell me recorded pIC50 for this one: COc1ccc(C/N=C(\C)c2c(O)c3ccccc3oc2=O)cc1
OUT: 5.27

IN: Give recorded pIC50. COCCC/N=C(\C)c1c(O)c2ccccc2oc1=O
OUT: 4.42

###

# Test system: COS-7
# method description: Cytotoxicity against Green monkey COS-7 cells assessed as reduction in cell viability incubated for 24 hrs by MTT assay
# Type: toxicity, cell-based
# conditions used: chlorocebus aethiops, cos-7, 24 h
// values below are reported CC10
Your answer is read as µM, so omit the unit and give the number.

Solved entries:
- COCCC/N=C(\C)c1c(O)c2ccccc2oc1=O: 339
- C/C(=N\CCCOCc1ccc2c(c1)OCO2)c1c(O)c2ccccc2oc1=O: 110
- CCOCCC/N=C(\C)c1c(O)c2ccccc2oc1=O: 53
- COc1ccc(C/N=C(\C)c2c(O)c3ccccc3oc2=O)cc1: 36
- COCC/N=C(\C)c1c(O)c2ccccc2oc1=O: 286
- CCOCCC/N=C/c1c(O)c2ccccc2oc1=O: 135
- COc1cccc(C/N=C(\C)c2c(O)c3ccccc3oc2=O)c1: 39
- CCOCC/N=C(\C)c1c(O)c2ccccc2oc1=O: 184

# input for lookup
IN: Report value only: CC10, COS-7, COc1ccc(COCCC/N=C(\C)c2c(O)c3ccccc3oc2=O)cc1
OUT: 46

###

# method description: Selectivity index, ratio of IC50 for inhibition of full length bovine cardiac muscle myosin II ATPase activity to IC50 for inhibition of full length rabbit skeletal muscle myosin II ATPase activity
Is Ratio IC50 at least 3? Then TRUE. If not, FALSE.

Example entries begin here.
• CCOCCC/N=C/c1c(O)c2ccccc2oc1=O = TRUE
• COCC/N=C(\C)c1c(O)c2ccccc2oc1=O = FALSE
• COCCC/N=C(\C)c1c(O)c2ccccc2oc1=O = TRUE

IN: Check the entry COc1cccc(C/N=C(\C)c2c(O)c3ccccc3oc2=O)c1 : does Ratio IC50 equal or exceed 3?
OUT: FALSE

IN: Is the recorded value of Ratio IC50 equal to or greater than 3 for this compound? CCOCCC/N=C(\C)c1c(O)c2ccccc2oc1=O
OUT: TRUE

IN: Entry COc1ccc(C/N=C(\C)c2c(O)c3ccccc3oc2=O)cc1 : is its Ratio IC50 no less than 3?
OUT: TRUE

IN: Hello, I need to know if CCOCC/N=C(\C)c1c(O)c2ccccc2oc1=O has measured Ratio IC50 not below 3. Thanks!
OUT: FALSE

###

# Tested on: COS-7
# method description: Cytotoxicity against Green monkey COS-7 cells assessed as reduction in cell viability incubated for 24 hrs by MTT assay
# Assay type: toxicity, cell-based
# conditions used: chlorocebus aethiops, cos-7, 24 h
experimental readout: CC50

• COc1cccc(C/N=C(\C)c2c(O)c3ccccc3oc2=O)c1 = > 200 µM
• C/C(=N\CCCOCc1ccc2c(c1)OCO2)c1c(O)c2ccccc2oc1=O = > 200 µM
• CCOCC/N=C(\C)c1c(O)c2ccccc2oc1=O = > 1000 µM
• CCOCCC/N=C(\C)c1c(O)c2ccccc2oc1=O = 980 µM
• COCC/N=C(\C)c1c(O)c2ccccc2oc1=O = > 200 µM
• COCCC/N=C(\C)c1c(O)c2ccccc2oc1=O = > 1000 µM

IN: Input COc1ccc(C/N=C(\C)c2c(O)c3ccccc3oc2=O)cc1 , output reported CC50.
OUT: > 200 µM

IN: Using known records, supply CC50 for COc1ccc(COCCC/N=C(\C)c2c(O)c3ccccc3oc2=O)cc1
OUT: > 200 µM

IN: For the compound CCOCCC/N=C/c1c(O)c2ccccc2oc1=O , report CC50.
OUT: > 1000 µM

###

# method description: Inhibition of full length rabbit myosin 2 skeletal muscle isoform derived from Psoas muscle ATPase activity assessed as reduction in steady-state rabbit F-actin-activated Mg2+ ATPase activity incubated for 6 to 24 mins in presence of ATPase buffer at 7.0 containing Mgcl2 and ATP by fluorescence-based assay
# Type: tissue-based, Oryctolagus cuniculus
// returns 0 unless IC50 is strictly below 20 µM, in which case 1

- COCCOCCOCCC/N=C(\C)c1c(O)c2ccccc2oc1=O: 0
- CCOCCC/N=C/c1c(O)c2ccccc2oc1=O: 1
- C/C(=N\CCCOCc1ccc2c(c1)OCO2)c1c(O)c2ccccc2oc1=O: 0
- COCC/N=C(\C)c1c(O)c2ccccc2oc1=O: 0
- COCCC/N=C(\C)c1c(O)c2ccccc2oc1=O: 1

Next molecule, please.
IN: For this molecule, is IC50 lower than 20 µM? CCOCC/N=C(\C)c1c(O)c2ccccc2oc1=O
OUT: 1
